Ref: patent US4076702A

System: DS male mice
Conditions: oral single dose, observed 72 hours, Bliss method
The compounds listed here are annotated with their Acute toxicity LD50.
measure: Acute toxicity LD50 (mg/kg)

INSERT INTO assay_data (compound, measure, comparisonsymbol, resultvalue) VALUES
  ('CN(C(=O)CNC(=O)CN)c1ccc(Cl)cc1C(=O)c1ccccc1', 'Acute toxicity LD50', '=', 1309),
  ('CN(C(=O)CNC(=O)CN)c1ccc(Cl)cc1C(=O)c1ccccc1F.Cl', 'Acute toxicity LD50', '>', 1000),
  ('CN(C(=O)CNC(=O)CN)c1ccc(Cl)cc1C(=O)c1ccccc1Cl.O', 'Acute toxicity LD50', '=', 1255),
  ('CNC1=Nc2ccc(Cl)cc2C(c2ccccc2)=[N+]([O-])C1 [Compound No. 4, Chlordiazepoxide, reference compound]', 'Acute toxicity LD50', '=', 1090);
